Overview of recorded microsomal CLint at 1 μM for various molecules
measurement-description: Metabolic stability in human liver microsomes
Type: in vitro ADME
measurement-conditions: human, liver microsomes, 1 μM, human liver microsomes 0.5 mg/mL, NADPH and UDPGA, 37° C.; read-out: CLint (intrinsic clearance)

These solved cases illustrate the format of a correct answer.
>  <molecule>
Cc1nc(Nc2ncc(C(=O)Nc3c(C)cccc3Cl)s2)cc(N2CC[C@@H](O)C2)n1

>  <microsomal CLint at 1 μM>
< 24 µL/min/mg

$$$$
>  <molecule>
Cc1nc(Nc2ncc(C(=O)Nc3c(C)cccc3Cl)s2)cc(N2CC[C@H](O)C2)n1

>  <microsomal CLint at 1 μM>
< 24 µL/min/mg

$$$$
>  <molecule>
[2H]c1cc(C)c(NC(=O)c2cnc(Nc3cc(N4CCC(O)CC4)nc(C)n3)s2)c(Cl)c1

>  <microsomal CLint at 1 μM>
44 µL/min/mg

$$$$
>  <molecule>
Cc1nc(Nc2ncc(C(=O)Nc3c(C)cccc3Cl)s2)cc(N2CCC(O)CC2)n1

>  <microsomal CLint at 1 μM>
56 µL/min/mg

$$$$
>  <molecule>
[2H]c1cc(C)c(NC(=O)c2cnc(Nc3cc(N4CC[C@H](O)C4)nc(C)n3)s2)c(Cl)c1

>  <microsomal CLint at 1 μM>
< 24 µL/min/mg

$$$$

According to the records, this molecule [2H]c1cc(C)c(NC(=O)c2cnc(Nc3cc(N4CC[C@@H](O)C4)nc(C)n3)s2)c(Cl)c1 displays microsomal CLint at 1 μM of < 24 µL/min/mg
